# ASSAY COMMENT: Inhibition of NS5B polymerase in HCV genotype 2A infected in HuH7 cells after 40 hrs by Taqman probe based RT-PCR analysis
Measured EC50, listed per entry.

INSERT INTO results (compound, value) VALUES
  ('CNC(=O)c1c(-c2ccc(F)cc2)oc2cc(N(C)S(C)(=O)=O)c(-c3ccc4c(n3)-c3cc5c(F)cccc5n3CN4)cc12', '5.7 nM'),
  ('CNC(=O)c1c(-c2ccc(F)cc2)oc2cc(N(C)S(C)(=O)=O)c(-c3ccc4c(n3)-c3cc5c(F)cccc5n3C4)cc12 [US9243002, 88]', '8.5 nM'),
  ('CNC(=O)c1c(-c2ccc(F)cc2)oc2cc(N(C)S(C)(=O)=O)c(-c3ccc4c(n3)-c3cc5c(F)cccc5n3CCCC4)cc12 [US9243002, 99]', '26 nM');

Query: GET /values?readout=EC50&item= "CNC(=O)c1c(-c2ccc(F)cc2)oc2cc(N(C)S(C)(=O)=O)c(-c3ccc4ncn5c6cccc(F)c6cc5c4n3)cc12"
Response: 3.4 nM

Query: Now try CNC(=O)c1c(-c2ccc(F)cc2)oc2cc(N(C)S(C)(=O)=O)c(-c3ccc4ccn5c6cccc(F)c6cc5c4n3)cc12 [US9243002, 82] .
Response: 6.7 nM

// data source = BindingDB's records for doi:10.1016/j.bmcl.2018.10.045
